Experiment: Half life in rat
Assay type: ADME, organism-based
Conditions: in vivo
experimental readout: half-life (h)
Form entry: value (h) — number only.

CC(C)(C)c1nc2nc(-c3ccccc3Cl)c(-c3ccc(Cl)cc3)cc2c2n[nH]c(=O)n12: 5.6

Could you now look at the following compound, please?
## Input Sample "CC(C)(C)c1nc2nc(-c3ccccc3Cl)c(-c3ccc(C#N)cc3)cc2c2n[nH]c(=O)n12" — what was its half-life?
## Output 3.5

----------
Experiment: Bioavailability in dog
Type: ADME, organism-based, Canis lupus familiaris
Conditions: in vivo
experimental readout: bioavailability (%)
Form entry: value (%) — number only.

## Input Sample "CC(C)(C)c1nc2nc(-c3ccccc3Cl)c(-c3ccc(C#N)cc3)cc2c2n[nH]c(=O)n12" — what was its bioavailability?
## Output 2.1
